Tested on: HepG2 cells
Assay: HepG2 cytotoxicity assay
Assay type: cell-based
Conditions: HepG2 cells; mean
assay_readout: HepG2 cells mean TOX50 (µM)

# molecule, experimental_target, assay_readout, relation_qualifier, observed_measurement
rows = [
    ("OCCN1CCN(c2ccc(Nc3ccnc4cc5ccccc5cc34)cc2)CC1", "HepG2 cells", "HepG2 cells mean TOX50", "=", 5.43),
    ("CCc1c(CCNCCCCCCNC(C)(C)Cc2ccc3c(c2CC)OCO3)ccc(OC)c1OC.Cl", "HepG2 cells", "HepG2 cells mean TOX50", "=", 4.27),
    ("Clc1ccc(-c2csc3ncnc(Cl)c23)cc1", "HepG2 cells", "HepG2 cells mean TOX50", "=", 94.46),
    ("C=CCc1cccc(CN2CCC(c3cc(O)nc(-c4ccccn4)n3)CC2)c1O", "HepG2 cells", "HepG2 cells mean TOX50", "=", 11.49),
    ("CCCN(CC1CC1)c1ncc(-c2cccc(CNCCC3CCCN3C)c2)cn1 (stereo not drawn)", "HepG2 cells", "HepG2 cells mean TOX50", "=", 3.09),
    ("CC(C)(C)Nc1cc(C2CC2)nc(-c2ccccn2)n1", "HepG2 cells", "HepG2 cells mean TOX50", ">", 100),
    ("c1ccn2c(Sc3ncnc4sccc34)ncc2c1", "HepG2 cells", "HepG2 cells mean TOX50", ">", 100),
    ("CCc1c(CCNCCCCCNCCc2ccc(OC)c(OC)c2CC)ccc(OC)c1OC.Cl", "HepG2 cells", "HepG2 cells mean TOX50", "=", 4.68),
    ("NC1CCN(CCc2ccc(NS(=O)(=O)c3ccc(-c4ccccc4)cc3)cc2)CC1", "HepG2 cells", "HepG2 cells mean TOX50", "=", 7.17),
]

----------
Tested on: P. falciparum stage V female gametocytes
Assay: P. falciparum female gametocyte activation assay (Pf FGAA), 24 h or 48 h preincubation, Pfs25 expression readout
Assay type: cell-based, Plasmodium falciparum NF54
Details: 24h incubation time; read-out: Pf FGAA IC50 (µM) 24h
As shown below, each of these molecules has a reported IC50 value.

# molecule, experimental_target, IC50 / µM
data = [
    ("Cc1ccc(Cl)c2sc(N3CCN(C(=O)c4ccc([N+](=O)[O-])o4)CC3)nc12 [TCMDC-124311]", "P. falciparum stage V female gametocytes", 1.5),
    ("Cl.Fc1cc(Cl)ccc1Nc1ccnc2cc(-c3ccc(CN4CCNCC4)o3)ccc12 [TCMDC-138394]", "P. falciparum stage V female gametocytes", 10),
    ("CC(C)(C)CNCC(C)(C)c1nc(-c2ccc(Cl)c(O)c2)c(-c2ccncc2)[nH]1.Cl [TCMDC-140549]", "P. falciparum stage V female gametocytes", 3.56),
    ("O=C(NCC1CCN(Cc2cccc(C(F)(F)F)c2)C1)c1cc(-c2cccc(C(F)(F)F)c2)cs1.O=C(O)C(F)(F)F (stereo not shown) [TCMDC-134483]", "P. falciparum stage V female gametocytes", 2.45),
]

----------
Test system: HepG2 cells
Test: HepG2 cytotoxicity assay
Format: cell-based
Conditions: HepG2 cells; mean
As shown below, each of these molecules has a reported HepG2 cells mean TOX50 value.
assay_readout: HepG2 cells mean TOX50 (µM)

# molecule, experimental_target, assay_readout, relation_qualifier, observed_measurement
measured = [
    ("FC(F)(F)c1ccc2[nH]c(-c3ccc(-c4ccc(CNCCN5CCNCC5)cc4)cc3)nc2c1.O=C(O)C(F)(F)F", "HepG2 cells", "HepG2 cells mean TOX50", "=", 16.43),
    ("Cc1ccc(Cn2nc(N3CCNCC3)ccc2=O)cc1NC(=O)Nc1ccc(-c2ccccc2)cc1.O=C(O)C(F)(F)F", "HepG2 cells", "HepG2 cells mean TOX50", "=", 7.42),
    ("COc1ccc(CNC2Cc3ccccc3C2)cc1-c1ccc(S(=O)(=O)NCCN2CCCC2)cc1.O=C(O)C(F)(F)F", "HepG2 cells", "HepG2 cells mean TOX50", "=", 5.89),
    ("CCCC(=O)NC(c1ccc(C(C)C)cc1)c1ccc2cccnc2c1O (stereo not shown)", "HepG2 cells", "HepG2 cells mean TOX50", ">", 100),
]
